Biological target: Mitogen-activated protein kinase 3 (Homo sapiens) (UniProt P27361)
Sequence (P27361 whole entry): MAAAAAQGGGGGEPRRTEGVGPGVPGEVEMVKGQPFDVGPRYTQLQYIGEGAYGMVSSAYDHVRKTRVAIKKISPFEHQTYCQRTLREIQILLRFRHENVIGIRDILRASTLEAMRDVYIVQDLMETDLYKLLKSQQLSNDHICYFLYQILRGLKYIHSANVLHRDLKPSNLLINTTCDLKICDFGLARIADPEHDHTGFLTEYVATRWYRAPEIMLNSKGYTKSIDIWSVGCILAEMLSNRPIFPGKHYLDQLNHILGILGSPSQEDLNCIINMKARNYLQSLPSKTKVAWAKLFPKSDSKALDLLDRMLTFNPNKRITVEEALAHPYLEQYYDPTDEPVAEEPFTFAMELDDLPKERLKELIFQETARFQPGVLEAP
Experiment: Inhibition of ERK1 at 30 uM by microfluidic mobility shift assay
Readout Type: inhibition (%)

                                chem_smiles  val
0     Cn1nc2c3c(nc(-c4ccccc4)cc31)NCC(=O)N2    5
1       Cn1nc(N)c2c(=O)[nH]c(-c3ccccc3)cc21   19
2  COc1ccccc1-c1cc2nn(-c3ccccc3)c(N)c2c(=O)[nH]1   21
3               Cc1cc2[nH]nc(N)c2c(=O)[nH]1    4
4        Nc1n[nH]c2cc(-c3cccs3)[nH]c(=O)c12   15
5                 COCCNc1nc(C)cc2c1c(N)nn2C    5

(a) COc1ccc(-c2cc3c(c(N)nn3C)c(=O)[nH]2)cc1
(b) Cn1nc(N)c2cnc(-c3ccccc3)cc21
Ask | // select label with min value of measured inhibition from [ a , b ] Output the label that corresponds to your choice.
Reply | b
(b: 9%, a: 28%)

(I) Cc1cc2c(c(N)nn2C)c(=O)[nH]1
(II) Cc1nc(N)c2c(=O)[nH]c(C)cc2n1
(III) Cc1cc2nc(-c3ccccc3)nc(N)c2c(=O)[nH]1
Ask | Sort the compounds on inhibition; start with the lowest figure. Reply: labels, ordered per the request.
Reply | I, II, III

###

Experiment: Inhibition of PKA at 30 uM by microfluidic mobility shift assay
Readout Type: inhibition (%)

Solved cases (5 shown):
In [3]: df
Out[3]:
                                chem_smiles  readout_type  val
0        Nc1c2cnc(-c3ccccc3)cc2nn1-c1ccccc1    inhibition    4
1        Nc1n[nH]c2cc(-c3cccs3)[nH]c(=O)c12    inhibition   79
2  CN1CCN(c2ccc(-c3cc4nn(-c5ccccc5)c(N)c4c(=O)[nH]3)cc2)CC1    inhibition    2
3         COCCNc1nc(-c2ccccc2)cc2c1c(N)nn2C    inhibition   -3
4            Cc1cc2[nH]nc(N)c2c(N2CCCCC2)n1    inhibition   86

(P) Cc1cc2c(c(N)nn2C)c(N2CCCCC2)n1
(Q) COC(=O)CCc1c(C)[nH]c(=O)c2c(N)nn(C)c12
(R) Cc1cc2[nH]nc(N)c2c(N2CCOCC2)n1
(S) Nc1c2c(=O)[nH]c(-c3ccccc3)cc2nn1-c1ccccc1
(T) COCCNc1nc(C)cc2c1c(N)nn2C
Ask | Rank order required: inhibition, descending. Ranked list of labels, please, in the requested order.
Reply | R, T, P, Q, S
(R: 71%, T: 19%, P: 6%, Q: 3%, S: -10%)

(P) CC(C)(C)c1cc2[nH]nc(N)c2c(=O)[nH]1
(Q) COc1cccc(-c2cc3c(c(N)nn3C)c(=O)[nH]2)c1
Ask | P or Q : whose inhibition is greater? Please identify the chosen entry by its label.
Reply | P
(P: 75%, Q: 7%)

###

Target: Mitogen-activated protein kinase 1 (Homo sapiens) (UniProt P28482)
Sequence (P28482 whole entry): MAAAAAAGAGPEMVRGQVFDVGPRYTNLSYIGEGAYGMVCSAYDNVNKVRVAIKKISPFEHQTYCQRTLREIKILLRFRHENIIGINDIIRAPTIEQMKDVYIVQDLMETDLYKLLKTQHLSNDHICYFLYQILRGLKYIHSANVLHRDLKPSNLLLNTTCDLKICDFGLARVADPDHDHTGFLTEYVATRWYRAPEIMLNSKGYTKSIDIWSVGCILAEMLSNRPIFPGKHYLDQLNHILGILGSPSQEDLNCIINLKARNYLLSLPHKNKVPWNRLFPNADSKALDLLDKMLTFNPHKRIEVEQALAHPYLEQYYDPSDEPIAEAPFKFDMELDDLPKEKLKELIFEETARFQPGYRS
Assay: Inhibition of ERK2 at 30 uM by microfluidic mobility shift assay
Readout Type: inhibition (%)

Study these solved cases before continuing.
>>> print(df.to_string())
                                chem_smiles  unit_annotation  val
0       COCCNc1nc(C)cc2nn(-c3ccccc3)c(N)c12                %   -1
1        CC(C)(C)c1cc2[nH]nc(N)c2c(=O)[nH]1                %    4
2  COc1ccc(-c2cc3nn(-c4ccccc4)c(N)c3c(=O)[nH]2)cc1                %    3

(P) Cc1cc2[nH]nc(N)c2c(N2CCOCC2)n1
(Q) COc1cccc(-c2cc3c(c(N)nn3C)c(=O)[nH]2)c1
Ask | Between P and Q , whose measured inhibition reads higher? Give the label under which the chosen entry appears.
Reply | Q

(P) Cc1cc2nc(N)nc(N)c2c(=O)[nH]1
(Q) Cc1cc2nn(-c3ccccc3)c(N)c2c(N2CCCCC2)n1
(R) Nc1n[nH]c2cc(-c3ccncc3)[nH]c(=O)c12
(S) CC(C)(C)c1cc2nn(-c3ccccc3)c(N)c2c(=O)[nH]1
(T) Cn1nc2c3c(nc(-c4ccccc4)cc31)NCC(=O)N2
Ask | Let's sort these by inhibition, smallest first. Go ahead? Would you mind listing the labels in the order requested?
Reply | T, Q, P, S, R

(a) Cc1cc2nc(-c3ccccc3)nc(N)c2c(=O)[nH]1
(b) COc1ccc(-c2c(C)[nH]c(=O)c3c(N)nn(C)c23)cc1
Ask | Kindly identify the item with the lower inhibition figure among these two: a and b Refer to your chosen item by its label in the answer.
Reply | b
(b: 7%, a: 11%)

(P) COc1ccc(-c2cc3[nH]nc(N)c3c(=O)[nH]2)cc1
(Q) Cc1cc2nn(-c3ccccc3)c(N)c2c(=O)[nH]1
Ask | Lowest inhibition? choose P or Q Identify your pick by its label.
Reply | Q
